assay: The drug is tested on Bacteroides fragilis strain: HMW610 for biotransformation. The drug concentrations were measured before and after a 12-h incubation by liquid-chromatography-coupled mass spectrometry (LC–MS); conditions: 2 µM

{"Compound": "CC(C)(C)NC(=O)[C@H]1CC[C@H]2[C@@H]3CC[C@H]4NC(=O)C=C[C@]4(C)[C@H]3CC[C@]12C [FINASTERIDE]", "Bacterial Biotransformation": "Compound metabolized"}
{"Compound": "CC(CCc1ccccc1)NCC(O)c1ccc(O)c(C(N)=O)c1 (centres undefined) [LABETALOL]", "Bacterial Biotransformation": "Compound NOT metabolized"}
{"Compound": "NC(=O)N1c2ccccc2CC(=O)c2ccccc21 [OXCARBAZEPINE]", "Bacterial Biotransformation": "Compound NOT metabolized"}
{"Compound": "CC(C)N(CCC(C(N)=O)(c1ccccc1)c1ccccn1)C(C)C.O=P(O)(O)O (centres undefined) [DISOPYRAMIDE PHOSPHATE]", "Bacterial Biotransformation": "Compound NOT metabolized"}
{"Compound": "CN1CCOC(c2ccccc2)c2ccccc2C1 (centres undefined) [NEFOPAM]", "Bacterial Biotransformation": "Compound NOT metabolized"}
{"Compound": "CC(CN1c2ccccc2Sc2ccccc21)N(C)C (centres undefined) [PROMETHAZINE]", "Bacterial Biotransformation": "Compound NOT metabolized"}
{"Compound": "Clc1ccc(Cn2c(CN3CCCC3)nc3ccccc32)cc1 [CLEMIZOLE]", "Bacterial Biotransformation": "Compound NOT metabolized"}
{"Compound": "OC(Cn1cncn1)(Cn1cncn1)c1ccc(F)cc1F [FLUCONAZOLE]", "Bacterial Biotransformation": "Compound metabolized"}
{"Compound": "CC(=O)O[C@]1(C(C)=O)CC[C@H]2[C@@H]3C=C(C)C4=CC(=O)CC[C@]4(C)[C@H]3CC[C@@]21C [MEGESTROL ACETATE]", "Bacterial Biotransformation": "Compound metabolized"}

Hello, the source for this data is ChEMBL document CHEMBL5303573, in case you need it.
